# Test system: SF-295
# Type: cell-based
# measurement_parameters: Homo sapiens, one dose 10^-5 M, 48 h
Each item that follows carries a reported % cell growth at 10 µM.
Give your result in % as a bare value.

{"compound": "N#Cc1c(N)nc(S)nc1-c1ccc(Cl)cc1", "% cell growth at 10 µM (%)": 76.2}

Exam item: % cell growth at 10 µM lookup needed for COc1ccc(C=NNC(=N)c2c(N)nc(S)nc2-c2ccc(Cl)cc2Cl)cc1 , thanks.
Marked response: 85.8

Exam item: Give its % cell growth at 10 µM value. Item: CN(C)c1ccc(-c2nc(S)nc(N)c2C(=N)NN=Cc2ccc(Cl)cc2)cc1
Marked response: 96.8

Exam item: Any idea what its % cell growth at 10 µM is? The compound is N=C(NN=Cc1ccccc1)c1c(N)nc(S)nc1-c1ccc(Cl)cc1
Marked response: 35.6

Exam item: Fill in the blank: the reported % cell growth at 10 µM of CN(C)c1ccc(-c2nc(S)nc(N)c2C(=N)NN=Cc2ccc(Br)cc2)cc1 is ____.
Marked response: 104

All figures here come from paper PMC10866072.
